Below, each entry is listed with its recorded IC50.
target.entity: SFRP-1 (Homo sapiens)
Sequence (Q8N474 32-314): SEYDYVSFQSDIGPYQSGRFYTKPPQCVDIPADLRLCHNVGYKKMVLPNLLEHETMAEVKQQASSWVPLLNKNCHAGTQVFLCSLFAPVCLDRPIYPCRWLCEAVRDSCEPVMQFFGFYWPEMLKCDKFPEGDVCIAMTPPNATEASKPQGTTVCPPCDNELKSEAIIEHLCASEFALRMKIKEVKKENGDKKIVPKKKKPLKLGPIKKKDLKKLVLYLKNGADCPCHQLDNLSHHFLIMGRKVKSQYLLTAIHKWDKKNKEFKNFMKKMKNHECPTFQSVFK
readout.kind: IC50

molecule: O=S(=O)(NCC1CCOCC1)c1cc(S(=O)(=O)c2ccccc2)ccc1C(F)(F)F
result: 190 nM

molecule: CS(=O)(=O)N1CCC[C@H]1C(=O)N1CCC(NS(=O)(=O)c2cc(S(=O)(=O)c3ccccc3)ccc2C(F)(F)F)CC1
result: 30 nM

molecule: CC(C)c1ccc(S(=O)(=O)c2cccc3cccnc23)cc1S(=O)(=O)NCCc1ccccn1
result: 900 nM

molecule: CC(C)c1cc(C(C)C)c(S(=O)(=O)c2ccc(F)cc2)cc1S(=O)(=O)NCCc1ccccn1
result: 4000 nM

molecule: O=C(O)c1ccc(-c2cccc(CNS(=O)(=O)c3cc(S(=O)(=O)c4ccccc4)ccc3C(F)(F)F)c2)cc1
result: 900 nM

molecule: CN(CCNS(=O)(=O)c1cc(S(=O)(=O)c2ccccc2)ccc1C(F)(F)F)C(=O)N(C)C1CCN(C(=O)OC(C)(C)C)CC1
result: 3000 nM

molecule: Nc1ccc(CNS(=O)(=O)c2cc(S(=O)(=O)c3ccccc3)ccc2C(F)(F)F)cc1
result: 190 nM

molecule: Cc1cc(C)c(S(=O)(=O)c2ccccc2)cc1S(=O)(=O)NC1CCN(C(=O)OC(C)(C)C)CC1
result: 4000 nM

molecule: CC(C)c1ccc(S(=O)(=O)c2ccccc2)cc1S(=O)(=O)NC1CCN(C(=O)c2ccc(F)cc2)CC1
result: 400 nM

molecule: COC(=O)C1CCCC(NS(=O)(=O)c2cc(S(=O)(=O)c3ccccc3)ccc2C(C)C)C1 (stereo not drawn)
result: 3000 nM

molecule: Cc1ccccc1S(=O)(=O)c1ccc(C(C)C)c(S(=O)(=O)NC2CCOCC2)c1
result: 1500 nM

molecule: O=C(O)CN1CCCC1CCNS(=O)(=O)c1cc(S(=O)(=O)c2ccccc2)ccc1C(F)(F)F (stereo not drawn)
result: 4000 nM

molecule: CN(CCNS(=O)(=O)c1cc(S(=O)(=O)c2ccccc2)ccc1C(F)(F)F)C(=O)Oc1ccc(F)cc1
result: 600 nM

molecule: COP(=O)(Cc1ccc(C(=O)N(C)CCNS(=O)(=O)c2cc(S(=O)(=O)c3ccccc3)ccc2C(F)(F)F)cc1)OC
result: 180 nM

molecule: CCN(CC)C(=O)N(C)CCNS(=O)(=O)c1cc(S(=O)(=O)c2ccccc2)ccc1C(F)(F)F
result: 400 nM

* * *

target.entity: SFRP-1 (Homo sapiens, UniProt Q8N474)
measurement.description: Cell-based assay for in vitro measurement of SFRP-1/SARP2 antagonist activity (U2OS cells co-transfected with 16x TCF-tk-Luciferase reporter, Wnt and hSFRP-1);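 also: U2OS cells co-transfected with a TCF-tk luciferase reporter, a Wnt vector, hSFRP-1 or empty vector and CMV-βgal, luciferase luminescence read in cell lysates alongside βgal activity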
conditions.used: U2OS, read-out: Fold Induction without SFRP-1, Conc 30 μM; without SFRP-1, single dose
// returns Criterion not met unless fold induction at 30 µM is strictly below 0.6, in which case Criterion met

molecular.string: Cc1ccc(S(=O)(=O)c2ccccc2)cc1S(=O)(=O)NCCc1ccccc1Cl
cat: Criterion met
//
molecular.string: Cc1ccc(S(=O)(=O)c2ccccc2)cc1S(=O)(=O)NCCc1cccc(F)c1
cat: Criterion not met
//
molecular.string: CCOc1cc(CCNS(=O)(=O)c2cc(S(=O)(=O)c3ccccc3)ccc2C)ccc1OC
cat: Criterion not met
//
molecular.string: Cc1ccc(S(=O)(=O)c2ccc(F)cc2)cc1S(=O)(=O)NCCc1cccc(F)c1
cat: Criterion met
//
molecular.string: COc1ccccc1CCNS(=O)(=O)c1cc(S(=O)(=O)c2ccc(C)cc2)ccc1C
cat: Criterion met
//
molecular.string: CCN(CC)CCNS(=O)(=O)c1cccc(S(=O)(=O)c2ccccc2)c1
cat: Criterion not met
//
molecular.string: O=S(=O)(NCCc1ccncc1)c1cccc(S(=O)(=O)c2ccccc2)c1
cat: Criterion not met
//
molecular.string: COCCCNS(=O)(=O)c1cccc(S(=O)(=O)c2ccccc2)c1
cat: Criterion not met

Entry source: patent US20060276464A1
